Test system: Mice
Test: Hot-plate test
Format: in vivo
Conditions: Mus musculus, 1 h, oral, 60 min after administration, 55.5°C, read-out: Hot-plate M.E.D. (minimum effective dose)
measured endpoint: minimal effective dose (mg/kg)

{"molecule": "Cc1ccc(OCc2ccccc2C(=O)Nc2ccc3nc(C)cc(N)c3c2)cc1.Cl [Example 17]", "tested on": "Mice", "measured endpoint": "minimal effective dose", "measured result": 1}
{"molecule": "Cc1cc(N)c2cc(NC(=O)c3ccccc3COc3ccc(C#N)cc3)ccc2n1.Cl [Example 16]", "tested on": "Mice", "measured endpoint": "minimal effective dose", "measured result": 3}
{"molecule": "CCc1ccc(OCc2ccccc2C(=O)Nc2ccc3nc(CC)cc(N)c3c2)c(Cl)c1 [Example 90]", "tested on": "Mice", "measured endpoint": "minimal effective dose", "measured result": 3}
